test: physchem; conditions: simulated gastric fluid, pH 1.2
measurement_kind: solubility thermodynamic at 24 h (µM)
Give bare numbers, in µM.

Please review the following examples before continuing.
Q. Given the compound CCCSc1ccc2nc(NC(=O)OC)[nH]c2c1 , what is its reported solubility thermodynamic at 24 h?
A. 204

Q. Given the compound CN(C/C=C/C#CC(C)(C)C)Cc1cccc2ccccc12.Cl [TERBINAFINE HYDROCHLORIDE] , what is its reported solubility thermodynamic at 24 h?
A. 155

Q. Given the compound CC(=O)Nc1ccc(O)cc1 , what is its reported solubility thermodynamic at 24 h?
A. 1230

List the reported solubility thermodynamic at 24 h of each compound below.
1. C[C@@H]1[C@H](O)[C@@H](C)/C=C/C=C/C=C/C=C/C=C/C=C/C=C/[C@H](O[C@@H]2O[C@H](C)[C@@H](O)[C@H](N)[C@@H]2O)C[C@@H]2O[C@](O)(C[C@@H](O)C[C@@H](O)[C@H](O)CC[C@@H](O)C[C@@H](O)CC(=O)O[C@H]1C)C[C@H](O)[C@H]2C(=O)O
2. CC(C)(C#N)c1cc(Cn2cncn2)cc(C(C)(C)C#N)c1
3. COCCOC(=O)C1=C(C)NC(C)=C(C(=O)OC(C)C)C1c1cccc([N+](=O)[O-])c1 (configuration not stated)
4. OC(Cn1cncn1)(Cn1cncn1)c1ccc(F)cc1F

A.
1: 11.2; 2: 0.178; 3: 10.7; 4: 0.851

----------
experiment: physchem; details: water
Provide the recorded solubility thermodynamic at 24 h for the entries that follow.
Numbers only, in µM.

Please review the following examples before continuing.
Q. Given the compound CCC(=O)O[C@]1(C(=O)SCF)[C@H](C)C[C@H]2[C@@H]3C[C@H](F)C4=CC(=O)C=C[C@]4(C)[C@@]3(F)[C@@H](O)C[C@@]21C [FLUTICASONE PROPIONATE] , what is its reported solubility thermodynamic at 24 h?
A. 0.0195

Q. Given the compound CCCSc1ccc2nc(NC(=O)OC)[nH]c2c1 , what is its reported solubility thermodynamic at 24 h?
A. 0.049

List the reported solubility thermodynamic at 24 h of each compound below.
1. C[C@@H]1[C@H](O)[C@@H](C)/C=C/C=C/C=C/C=C/C=C/C=C/C=C/[C@H](O[C@@H]2O[C@H](C)[C@@H](O)[C@H](N)[C@@H]2O)C[C@@H]2O[C@](O)(C[C@@H](O)C[C@@H](O)[C@H](O)CC[C@@H](O)C[C@@H](O)CC(=O)O[C@H]1C)C[C@H](O)[C@H]2C(=O)O
2. CC(C)(C#N)c1cc(Cn2cncn2)cc(C(C)(C)C#N)c1
3. CCCc1nc2c(C)cc(-c3nc4ccccc4n3C)cc2n1Cc1ccc(-c2ccccc2C(=O)O)cc1
4. CN(C/C=C/C#CC(C)(C)C)Cc1cccc2ccccc12.Cl [TERBINAFINE HYDROCHLORIDE]

A.
1: 22.9; 2: 0.148; 3: 29.5; 4: 229

----------
Provide the recorded solubility thermodynamic at 4 h for the entries that follow.
assay: physchem; conditions: water
Answers are plain numbers, in µM.

Q. Given the compound CN(C/C=C/C#CC(C)(C)C)Cc1cccc2ccccc12.Cl [TERBINAFINE HYDROCHLORIDE] , what is its reported solubility thermodynamic at 4 h?
A. 245

Q. Given the compound COc1ccc2[nH]c([S+]([O-])Cc3ncc(C)c(OC)c3C)nc2c1 (stereo unspecified) , what is its reported solubility thermodynamic at 4 h?
A. 229

Q. Given the compound CC(/C=C/C=C(\C)C(=O)O[C@@H]1O[C@H](CO[C@@H]2O[C@H](CO)[C@@H](O)[C@H](O)[C@H]2O)[C@@H](O)[C@H](O)[C@H]1O)=C\C=C\C=C(C)\C=C\C=C(/C)C(=O)O[C@@H]1O[C@H](CO[C@@H]2O[C@H](CO)[C@@H](O)[C@H](O)[C@H]2O)[C@@H](O)[C@H](O)[C@H]1O , what is its reported solubility thermodynamic at 4 h?
A. 155

Q. Given the compound CN1C(=N)N(C)/C(=C/c2c[nH]c3ccccc23)C1=O , what is its reported solubility thermodynamic at 4 h?
A. 31.6

Q. Given the compound C[C@@H]1[C@H](O)[C@@H](C)/C=C/C=C/C=C/C=C/C=C/C=C/C=C/[C@H](O[C@@H]2O[C@H](C)[C@@H](O)[C@H](N)[C@@H]2O)C[C@@H]2O[C@](O)(C[C@@H](O)C[C@@H](O)[C@H](O)CC[C@@H](O)C[C@@H](O)CC(=O)O[C@H]1C)C[C@H](O)[C@H]2C(=O)O , what is its reported solubility thermodynamic at 4 h?
A. 21.9

List the reported solubility thermodynamic at 4 h of each compound below.
1. CCC(=O)O[C@]1(C(=O)SCF)[C@H](C)C[C@H]2[C@@H]3C[C@H](F)C4=CC(=O)C=C[C@]4(C)[C@@]3(F)[C@@H](O)C[C@@]21C [FLUTICASONE PROPIONATE]
2. CCS(=O)(=O)CCn1c([N+](=O)[O-])cnc1C
3. CCCCCCCCCCCC1=C(O)C(=O)C=C(O)C1=O
4. OC(Cn1cncn1)(Cn1cncn1)c1ccc(F)cc1F

A.
0.2
324
1.7
0.324

List the reported solubility thermodynamic at 4 h of each compound below.
1. CC[C@H]1OC(=O)[C@H](C)[C@@H](O[C@H]2C[C@@](C)(OC)[C@@H](O)[C@H](C)O2)[C@H](C)[C@@H](O[C@@H]2O[C@H](C)C[C@H](N(C)C)[C@H]2O)[C@](C)(OC)C[C@@H](C)C(=O)[C@H](C)[C@@H](O)[C@]1(C)O
2. CC(=O)O[C@@]12CO[C@@H]1C[C@H](O)[C@@]1(C)C(=O)[C@H](O)C3=C(C)[C@@H](OC(=O)[C@H](O)[C@@H](NC(=O)OC(C)(C)C)c4ccccc4)C[C@@](O)([C@@H](OC(=O)c4ccccc4)[C@H]21)C3(C)C.O.O.O

A.
1. 0.676
2. 5.37

----------
assay: physchem; settings: simulated intestinal fluid, pH 6.8
Quick rule: solubility thermodynamic at 4 h of at least 20 µM means 1, below that means 0.

Q. Check if solubility thermodynamic at 4 h >= 20 µM (inclusive). Item: CC[C@H]1OC(=O)[C@H](C)[C@@H](O[C@H]2C[C@@](C)(OC)[C@@H](O)[C@H](C)O2)[C@H](C)[C@@H](O[C@@H]2O[C@H](C)C[C@H](N(C)C)[C@H]2O)[C@](C)(OC)C[C@@H](C)C(=O)[C@H](C)[C@@H](O)[C@]1(C)O [CLARITHROMYCIN]
A. 0

Q. Check if solubility thermodynamic at 4 h >= 20 µM (inclusive). Item: CCS(=O)(=O)CCn1c([N+](=O)[O-])cnc1C [TINIDAZOLE]
A. 1

Q. Check if solubility thermodynamic at 4 h >= 20 µM (inclusive). Item: O=c1c2cc(O)c(O)cc2oc2cc(O)c([C@@H]3O[C@H](CO)[C@@H](O)[C@H](O)[C@H]3O)c(O)c12 [MANGIFERIN]
A. 0

Further cases:
Q. Check if solubility thermodynamic at 4 h >= 20 µM (inclusive). Item: Clc1ccccc1C(c1ccccc1)(c1ccccc1)n1ccnc1 [CLOTRIMAZOLE]
A. 0

Q. Check if solubility thermodynamic at 4 h >= 20 µM (inclusive). Item: COc1cc2c(c(OC)c1OC)-c1ccc(OC)c(=O)cc1[C@@H](NC(C)=O)CC2 [COLCHICINE]
A. 1

Q. Check if solubility thermodynamic at 4 h >= 20 µM (inclusive). Item: NC(=O)c1cnccn1 [PYRAZINAMIDE]
A. 1

----------
Provide the recorded solubility thermodynamic at 4 h for the entries that follow.
test: physchem; conditions: simulated gastric fluid, pH 1.2
Number first, unit second.

Please review the following examples before continuing.
Q. Given the molecule COc1cc2c(c(OC)c1OC)-c1ccc(OC)c(=O)cc1[C@@H](NC(C)=O)CC2 , what is its reported solubility thermodynamic at 4 h?
A. 50.1 µM

Q. Given the molecule COc1cc(/C=C/C(=O)CC(=O)/C=C/c2ccc(O)c(OC)c2)ccc1O , what is its reported solubility thermodynamic at 4 h?
A. 1.35 µM

Q. Given the molecule CC(/C=C/C=C(\C)C(=O)O[C@@H]1O[C@H](CO[C@@H]2O[C@H](CO)[C@@H](O)[C@H](O)[C@H]2O)[C@@H](O)[C@H](O)[C@H]1O)=C\C=C\C=C(C)\C=C\C=C(/C)C(=O)O[C@@H]1O[C@H](CO[C@@H]2O[C@H](CO)[C@@H](O)[C@H](O)[C@H]2O)[C@@H](O)[C@H](O)[C@H]1O , what is its reported solubility thermodynamic at 4 h?
A. 155 µM

Q. Given the molecule CC(C)=CC[C@H]1C[C@@]23C[C@@H](CC=C(C)C)C(C)(C)[C@@](CC=C(C)C)(C(=O)C(C(=O)c4ccc(O)c(O)c4)=C2OC1(C)C)C3=O , what is its reported solubility thermodynamic at 4 h?
A. 0.851 µM

Q. Given the molecule COCCOC(=O)C1=C(C)NC(C)=C(C(=O)OC(C)C)C1c1cccc([N+](=O)[O-])c1 (configuration not stated) , what is its reported solubility thermodynamic at 4 h?
A. 9.55 µM

Q. Given the molecule O=C(/C=C/C=C/c1ccc2c(c1)OCO2)N1CCCCC1 , what is its reported solubility thermodynamic at 4 h?
A. 43.7 µM

Next item in the queue.
Q. Given the molecule NNC(=O)c1ccncc1 , what is its reported solubility thermodynamic at 4 h?
A. 589 µM
